experiment: Inhibition of Clostridium histolyticum collagenase (ChC) using a linear regression program
Property: Ki (µM)
Report as a plain number; the unit µM is understood.

Lookup: Determine its reported Ki: CC(C(=O)NO)N(Cc1ccc([N+](=O)[O-])cc1)S(=O)(=O)c1ccc([N+](=O)[O-])c(Cl)c1 (stereo unspecified)
Found: 9

###

experiment: Inhibition of Clostridium histolyticum collagenase using a linear regression program
Binary call on Ki with cut-off 3000 nM: strictly below means yes (1), and equality or higher means no (0).

Lookup: Is Ki of CC(C(=O)O)N(Cc1ccc([N+](=O)[O-])cc1)S(=O)(=O)c1cccc(NC(=O)OC(C)(C)C)c1 (configuration not stated) strictly below 3000 nM?
Found: yes (1)

Lookup: Hello, I'm reviewing records and need to know if Ki of CC(C(=O)O)N(Cc1ccc([N+](=O)[O-])cc1)S(=O)(=O)c1ccc([N+](=O)[O-])c(Cl)c1 (configuration not stated) is below 3000 nM. Could you check?
Found: no (0)

Lookup: Is Ki strictly under 3000 nM for the entry CC(C(=O)O)N(Cc1ccc([N+](=O)[O-])cc1)C(=O)NS(=O)(=O)c1ccc(Cl)cc1 (configuration not stated) ?
Found: yes (1)

Lookup: Ki under 3000 nM? Item: COc1ccc(S(=O)(=O)N(Cc2ccc([N+](=O)[O-])cc2)C(C)C(=O)NO)cc1 (configuration not stated)
Found: no (0)

Lookup: Field: below-cutoff. Rule: recorded Ki strictly less than 3000 nM. Subject: CC(C(=O)O)N(Cc1ccc([N+](=O)[O-])cc1)S(=O)(=O)c1cc(Cl)cc(Cl)c1O (configuration not stated)
Found: yes (1)

Lookup: Find out if reported Ki for CC(C(=O)O)N(Cc1ccc([N+](=O)[O-])cc1)S(=O)(=O)c1ccc(C(=O)O)cc1 (configuration not stated) is less than 3000 nM
Found: yes (1)

Lookup: Does the reported Ki of the following molecule sit strictly below 3000 nM? CC(C(=O)NO)N(Cc1ccc([N+](=O)[O-])cc1)S(=O)(=O)c1ccc(C(=O)O)cc1 (configuration not stated)
Found: no (0)

###

assay: Inhibition of Clostridium histolyticum collagenase using a linear regression program
Property: Ki (µM)
Dear colleague, please return just the value in µM, with no unit written.

Lookup: Give Ki for CC(C(=O)NO)N(Cc1ccc([N+](=O)[O-])cc1)C(=O)Nc1ccc(Cl)c(Cl)c1 (configuration not stated)
Found: 13

Lookup: Give the reported value of Ki for this record: CC(C(=O)O)N(Cc1ccc([N+](=O)[O-])cc1)S(=O)(=O)c1ccc(I)cc1 (configuration not stated)
Found: 12

Lookup: Supply recorded Ki for CC(C(=O)NO)N(Cc1ccc([N+](=O)[O-])cc1)C(=O)Nc1cccc(Cl)c1 (configuration not stated) here.
Found: 14

Lookup: Supply Ki value. Item: CC(C(=O)O)N(Cc1ccc([N+](=O)[O-])cc1)S(=O)(=O)C(F)(F)C(F)(F)C(F)(F)C(F)(F)F (configuration not stated)
Found: 2.3

Lookup: Please report Ki for the following compound: CC(=O)Nc1ccc(S(=O)(=O)N(Cc2ccc([N+](=O)[O-])cc2)C(C)C(=O)NO)cc1 (configuration not stated)
Found: 11

Lookup: Identify the reported Ki for the following entry. CC(C(=O)NO)N(Cc1ccc([N+](=O)[O-])cc1)S(=O)(=O)c1cccc(C(F)(F)F)c1 (configuration not stated)
Found: 6

Lookup: Answer with the recorded Ki of CC(C(=O)NO)N(Cc1ccc([N+](=O)[O-])cc1)C(=O)Nc1ccc(F)cc1F (configuration not stated) only.
Found: 15
